Tested on: Escherichia coli
Assay notes: Antimicrobial activity against extended spectrum beta-lactamases-producing Escherichia coli 10-2 after 18-24 hrs by two-fold serial dilution method
Type: functional
Parameter: MIC

What is its MIC for Escherichia coli? Entry: COc1ccc(CO/N=C2\CN(c3nc4c(cc3F)c(=O)c(C(=O)O)cn4C3CC3)CC2CN)c(OC)c1OC.CS(=O)(=O)O (racemic)
128 µg/mL

Now this one: CS(=O)(=O)O.NCC1CN(c2nc3c(cc2F)c(=O)c(C(=O)O)cn3C2CC2)C/C1=N\OCc1cc2c(cc1Cl)OCO2 (racemic)
128 µg/mL

Now this one: COc1cc(CO/N=C2\CN(c3nc4c(cc3F)c(=O)c(C(=O)O)cn4C3CC3)CC2CN)cc(OC)c1OC.CS(=O)(=O)O (racemic)
> 128 µg/mL

Now this one: COc1cccc(OC)c1CO/N=C1\CN(c2nc3c(cc2F)c(=O)c(C(=O)O)cn3C2CC2)CC1CN.CS(=O)(=O)O (racemic)
> 128 µg/mL

Now this one: CS(=O)(=O)O.NCC1CN(c2nc3c(cc2F)c(=O)c(C(=O)O)cn3C2CC2)C/C1=N\OCc1ccc(OCc2ccccc2)cc1 (racemic)
> 128 µg/mL

Now this one: CS(=O)(=O)O.NCC1CN(c2nc3c(cc2F)c(=O)c(C(=O)O)cn3C2CC2)C/C1=N\OCc1ccccc1 (racemic)
32 µg/mL

Now this one: COc1ccc(OC)c(CO/N=C2\CN(c3nc4c(cc3F)c(=O)c(C(=O)O)cn4C3CC3)CC2CN)c1.CS(=O)(=O)O (racemic)
> 128 µg/mL

Now this one: CS(=O)(=O)O.NCC1CN(c2nc3c(cc2F)c(=O)c(C(=O)O)cn3C2CC2)C/C1=N\OCc1ccc2c(c1)OCO2 (racemic)
> 128 µg/mL

Now this one: CS(=O)(=O)O.NCC1CN(c2nc3c(cc2F)c(=O)c(C(=O)O)cn3C2CC2)C/C1=N\OCc1cc2c(cc1[N+](=O)[O-])OCO2 (racemic)
> 128 µg/mL

Now this one: COc1cc(CO/N=C2\CN(c3nc4c(cc3F)c(=O)c(C(=O)O)cn4C3CC3)CC2CN)ccc1OCc1ccccc1.CS(=O)(=O)O (racemic)
> 128 µg/mL

Now this one: COc1cc(CO/N=C2\CN(c3nc4c(cc3F)c(=O)c(C(=O)O)cn4C3CC3)CC2CN)cc(Cl)c1OC.CS(=O)(=O)O (racemic)
> 128 µg/mL
